Test system: Human umbilical vein endothelial cells (HUVEC)
Assay: Inhibition of hFGF-2 mediated HUVEC proliferation
Format: cell-based
Details: 72 h
IC50: recorded values
QUANTITY_NAME: IC50 (nM)

> print(dat)
                            compound.smiles  quantity.name  scale.unit   val
1  COc1cc(C)cc2cc(-c3c(COCCO)c(CN4CCNC(=O)C4)n4ncnc(N)c34)sc12           IC50          nM   3.7
2  COC(=O)c1c(-c2cc3cc(C)cc(OC)c3s2)c2c(N)ncnn2c1C(=O)N1CCNCC1           IC50          nM   250
3  COc1cc(C)cc2cc(-c3c(CNCC(C)(C)O)c(C)n4ncnc(N)c34)sc12           IC50          nM   3.2
4  COc1cc(C)cc2cc(-c3c(C)c(CN4CCNCC4)n4ncnc(N)c34)sc12           IC50          nM  46.6
